# test target: His-hMAGL (recombinant polyhistidine tagged human MAGL protein) (Homo sapiens, UniProt Q99685)
# Construct: made in house; host or cells: E. coli BL21(DE3)
# measurement protocol: Measurement of MAGL inhibitory activity (arachidonic acid production from 2-arachidonylglycerol, RapidFire-mass spectrometry)
# Assay type: biochemical
# condition: MAGL inhibitory rate at 10 μM test compound; 60 min preincubation with His-hMAGL, 2-arachidonylglycerol substrate, 10 min reaction at room temperature
measurement label: inhibition at 10 µM (%)

molecule	value measured
O=C1COc2ccc(C(=O)N3CCC(COc4ccccc4Cl)CC3)cc2N1 [Example 24]	101
O=C1COc2cc(F)c(C(=O)N3CC(COc4cccc(Oc5ccccc5)c4)C3)cc2N1 [Example 129]	99
Cc1ncccc1-c1cc(Cl)ccc1OCC1CN(C(=O)c2cc3c(cc2F)OCC(=O)N3)C1 [Example 191]	102
O=C1COc2cc(F)c(C(=O)N3CC(COc4ccc(-c5cccnc5)cc4F)C3)cc2N1 [Example 261]	98
O=C1COc2cc(F)c(C(=O)N3CC(COc4ccc(-c5cccc(F)n5)cc4F)C3)cc2N1 [Example 289]	88
O=C1COc2cc(F)c(C(=O)N3CC(COc4ccc(Cl)c(F)c4)C3)cc2N1 [Example 130]	103
O=C1COc2cc(F)c(C(=O)N3CC(COc4ccc5ncccc5c4)C3)cc2N1 [Example 170]	104
O=C1COc2cc(F)c(C(=O)N3CC(COc4ccc(Cl)cc4-c4ccc5c(c4)CCO5)C3)cc2N1 [Example 221]	102
O=C1COc2cc(F)c(C(=O)N3CC(COc4cccc5nccnc45)C3)cc2N1 [Example 139]	92
O=C1COc2cc(F)c(C(=O)N3CC(COc4cccc5[nH]ncc45)C3)cc2N1 [Example 107]	101
Cc1ccc(OCC2CN(C(=O)c3cc4c(cc3F)OCC(=O)N4)C2)c(Cl)c1 [Example 117]	102
CC(C)(Oc1ccc(F)cc1F)C1CN(C(=O)c2cc3c(cc2F)OCC(=O)N3)C1 [Example 308]	104
N#Cc1cc(C(F)(F)F)ccc1OCC1CCN(C(=O)c2ccc3c(c2)NC(=O)C3)CC1 [Example 69]	99
O=C1COc2ccc(C(=O)N3CCC(COc4ccc(Cl)c(F)c4)CC3)cc2N1 [Example 42]	99
O=C1COc2cc(F)c(C(=O)N3CC(COc4ccc(Br)cc4F)C3)cc2N1 [Example 194]	103
O=C1COc2cc(F)c(C(=O)N3CC(COc4ccc(Cl)cc4)C3)cc2N1 [Example 111]	98
N#Cc1cc(C(F)(F)F)ccc1OCC1CCN(C(=O)c2ccc3c(c2)NC(=O)CO3)CC1 [Example 67]	101

----------
# test target: His-hMAGL (recombinant polyhistidine tagged human MAGL protein) (Homo sapiens)
# Construct: made in house; host or cells: E. coli BL21(DE3)
# Sequence (Q99685 1-303): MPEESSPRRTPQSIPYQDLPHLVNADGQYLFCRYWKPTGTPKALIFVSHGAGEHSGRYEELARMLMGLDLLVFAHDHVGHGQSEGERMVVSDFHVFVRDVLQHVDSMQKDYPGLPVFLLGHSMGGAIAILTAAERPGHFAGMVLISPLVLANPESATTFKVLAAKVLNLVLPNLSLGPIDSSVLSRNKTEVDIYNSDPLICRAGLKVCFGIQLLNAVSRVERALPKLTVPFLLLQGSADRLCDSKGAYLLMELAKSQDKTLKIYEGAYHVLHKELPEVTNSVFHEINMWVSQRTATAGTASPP
# measurement protocol: Measurement of MAGL inhibitory activity (arachidonic acid production from 2-arachidonylglycerol, RapidFire-mass spectrometry)
# Type: biochemical
# condition: MAGL inhibitory rate at 10 μM test compound; 60 min preincubation with His-hMAGL, 2-arachidonylglycerol substrate, 10 min reaction at room temperature
measurement label: inhibition at 10 µM (%)

compound	test target	inhibition at 10 µM / %
CC(C)(O)c1ccc(OCC2CCN(C(=O)c3cc4c(cc3F)OCC(=O)N4)CC2)c(Cl)c1 [Example 90]	His-hMAGL (recombinant polyhistidine tagged human MAGL protein) (Homo sapiens)	98
Cc1ccc(OCC2CN(C(=O)c3cc4c(cc3F)OCC(=O)N4)C2)c(C)n1 [Example 141]	His-hMAGL (recombinant polyhistidine tagged human MAGL protein) (Homo sapiens)	102
CC(C)Cn1cc(-c2cc(Cl)ccc2OCC2CN(C(=O)c3cc4c(cc3F)OCC(=O)N4)C2)cn1 [Example 224]	His-hMAGL (recombinant polyhistidine tagged human MAGL protein) (Homo sapiens)	103
O=C1COc2cc(F)c(C(=O)N3CCC(COc4cccc5ccnn45)CC3)cc2N1 [Example 275]	His-hMAGL (recombinant polyhistidine tagged human MAGL protein) (Homo sapiens)	99
Cc1c(-c2cc(Cl)ccc2OCC2CN(C(=O)c3cc4c(cc3F)OCC(=O)N4)C2)cnn1C [Example 266]	His-hMAGL (recombinant polyhistidine tagged human MAGL protein) (Homo sapiens)	99
Cc1cc(-c2cc(Cl)ccc2OCC2CN(C(=O)c3cc4c(cc3F)OCC(=O)N4)C2)ccn1 [Example 193]	His-hMAGL (recombinant polyhistidine tagged human MAGL protein) (Homo sapiens)	102
O=C1COc2ncc(C(=O)N3CCC(COc4c(F)cccc4Cl)CC3)cc2N1 [Example 22]	His-hMAGL (recombinant polyhistidine tagged human MAGL protein) (Homo sapiens)	95
O=C1COc2cc(F)c(C(=O)N3CC(COc4ccc(Cl)cc4Cl)C3)cc2N1 [Example 76]	His-hMAGL (recombinant polyhistidine tagged human MAGL protein) (Homo sapiens)	105

Data credit: patent US10106556B2
